- Measurement Notes: Caco-2 membrane permeability and efflux rate
- Format: in vitro ADME
- Measurement Conditions: human, Caco-2, Caco-2, 5 μM, read-out: ER (efflux rate)
Test Readout: efflux ratio at 2 h, 5 μM

compound=CP(C)(=O)c1cccc2c(-c3nc(N[C@H]4CC[C@@H]4O)ncc3C(F)(F)F)c[nH]c12 test_readout="efflux ratio at 2 h, 5 μM" reported_value=5.97
compound="CP(C)(=O)c1cccc2c(-c3nc(NCC4CC4CO)ncc3C(F)(F)F)c[nH]c12 (single isomer, unassigned)" test_readout="efflux ratio at 2 h, 5 μM" reported_value=13.3
compound=CP(C)(=O)c1cccc2c(-c3nc(NC[C@H](F)CO)ncc3C(F)(F)F)c[nH]c12 test_readout="efflux ratio at 2 h, 5 μM" reported_value=20.5
compound=CP(C)(=O)c1cccc2c(-c3nc(N[C@@H]4CCC[C@H]4O)ncc3C(F)(F)F)c[nH]c12 test_readout="efflux ratio at 2 h, 5 μM" reported_value=3.87

Entry source: patent US20240124504A1
